System: MALME-3M melanoma
Experiment: NCI-60 one-dose screen, 48 h (100 = growth as untreated, 0 = no growth, -100 = all killed)
Settings: 10 µM unless noted
This is part of a sample that, as a whole, favours compounds with a hit. Of some 83,000 tested, about 20% had one in any assay.
Record form. Attribute: growth. Fill in for each entry.
Just the number in %, nothing appended.

Measured growth (MALME-3M melanoma), entry Cc1cc(C)cc(C(=O)Nc2cccc(C#Cc3cccc4[nH]nc(N)c34)c2)c1 : 86.2

GET /values?item= CCOC(=O)c1c(N)c(C#N)cn1-c1cc(OC)c(OC)c(OC)c1 &system= MALME-3M melanoma returns growth: 102

Short answer on MALME-3M melanoma for Cc1cc2nc(C(Cl)Cl)nc(-c3cccs3)n2n1 , growth: 39.7

GET /values?item= N#Cc1cnc2ccc(-c3cnc4[nH]ncc4c3)cc2c1N1CCc2cc(F)c(Cl)cc21 &system= MALME-3M melanoma returns growth: 0.688

The measured growth that CCN1CCN(Cc2ccc(C(=O)Nc3ccc(C)c(Oc4ccc(-c5[nH]nc6ncnc(N)c56)cc4)c3)cc2C(F)(F)F)CC1 showed for MALME-3M melanoma is 22.8

The value of growth recorded for CC(=O)O[C@@H]1C(=O)N(c2cnccn2)[C@H]1c1ccccc1[N+](=O)[O-] when tested on MALME-3M melanoma reads 51.8

Per the reported MALME-3M melanoma data, CC(O)c1cc2ccccc2c(=O)o1 (centres undefined) has growth of 98.2

The molecule CCCSc1nc(Nc2ccc(/C(C)=N\NC(N)=S)cc2)c(C#N)c(-c2ccccc2)n1 , when measured on MALME-3M melanoma, yielded growth of 97.9

Summary line: COC(=O)C(Cc1ccccc1)Nc1nc(NC(Cc2ccccc2)C(=O)OC)nc(N2CCOCC2)n1 (centres undefined) , MALME-3M melanoma, reported growth = 105

Cc1c(F)cc(C(N)=O)cc1NCC(=O)Nc1ccc([N+](=O)[O-])cc1 tested on MALME-3M melanoma gave growth: 109

Summary line: CN1c2ccccc2Sc2cc(C=C(C#N)C#N)ccc21 , MALME-3M melanoma, reported growth = 98.3

Tested system MALME-3M melanoma; growth recorded for O=C(CSc1nc2ccccc2c(=O)n1-c1ccccc1)Nc1cccc(C(=O)/C=C/c2ccccc2Cl)c1 was 113

Tested on MALME-3M melanoma: O=C(O)c1ccc(-n2cc(CNc3cccc(Cl)c3)c(-c3ccc(F)cc3)n2)cc1 . Observed growth: 82.8

Field growth (system: MALME-3M melanoma) for entry CN(C)CCNC(=O)c1ccc(-c2nc3ccc4[nH]ncc4c3c3c2COCC3)cc1 = -24

---

Test system: U251 CNS
Assay: NCI-60 one-dose screen, 48 h
Conditions: 10 µM unless noted
This is part of a sample that, as a whole, favours compounds with a hit. Of some 83,000 tested, about 20% had one in any assay. The source made the active and inactive calls. How the source made its calls: active means growth percent below 10; inactive means the rest.
Permitted responses: active, inactive

Exam item: Fill in: this test's call for CCCCCc1ccc(S(=O)(=O)Nc2cc(-c3csc(NC(=O)CN4CCN(C)CC4)n3)ccc2N2CCN(C)CC2)cc1 is ___
Marked response: active

Exam item: Dear colleague, could you share the recorded outcome for NS(=O)(=O)c1ccc(-n2cc(CN3CCNCC3)nn2)cc1 when you have a moment?
Marked response: inactive

Exam item: Answer briefly: the call reported for CC(O)c1cc2ccccc2c(=O)o1 (stereo not given) in this assay.
Marked response: inactive

Exam item: For O=C(Nc1nc2ccc([N+](=O)[O-])cc2s1)Nc1ccccc1Br , which call appears in the assay record?
Marked response: inactive

Exam item: Please let me know the test result on file for Cc1cc2ncc(-c3cc4ccccc4c(N4CCN(C)CC4)n3)nc2cc1C .
Marked response: active
